Origin of the recorded values: the supplement of paper PMC6470124

# procedure details: absolute recovery over mixed-bed multilayer solid-phase extraction; higher = better recovery
# measurement context: surface water; enrichment method: SPE
readout kind: absolute recovery
Kindly report the value followed by its unit.

Some entries whose results are on file:
| compound | absolute recovery |
| --- | --- |
| CC(=O)Nc1ccc(S(=O)(=O)[N-]c2ncccn2)cc1 [N4-Acetyl-Sulfadiazin] | 93.8% |
| CCNc1nc(NC(C)C)nc(OC)n1 [Atraton] | 94.2% |
| CC(C)Oc1cccc(NC(=O)c2ccccc2C(F)(F)F)c1 [Flutolanil] | 104% |
| COC(=O)C(Cc1ccccc1)NC(=O)C(CC(=O)[O-])[NH2+]CCC(C)(C)C (stereo not given) [Neotam] | 91.3% |

Give absolute recovery for each listed item.
1. O=P1(NCCCl)OCCCN1CCCl (stereo not given) [Ifosfamid]
2. CCCCc1c(C)nc(NCC)nc1OS(=O)(=O)N(C)C [Bupirimate]
3. Nc1ccc(S(=O)(=O)[N-]c2ccccn2)cc1 [Sulfapyridin]
4. CCCC(Cn1cncn1)c1ccc(Cl)cc1Cl (stereo not given) [Penconazol]
5. CCCCCOC(=O)[N-]c1nc(=O)n(C2OC(C)C(O)C2O)cc1F (stereo not given) [Capecitabin]
6. COCC(C)N(C(=O)CCl)c1c(C)csc1C (stereo not given) [Dimethenamid]

["99.4%", "85.1%", "93.6%", "97.1%", "93.1%", "92.8%"]

* * *

# procedure details: absolute recovery over mixed-bed multilayer solid-phase extraction; higher = better recovery
# measurement context: nanopure water; enrichment method: SPE
Everything with absolute recovery lower than 90% is not fulfilled; everything else, including exactly 90%, is fulfilled.

| compound | class assignment |
| --- | --- |
| Cc1nn(-c2cc(NS(C)(=O)=O)c(Cl)cc2Cl)c(=O)n1C(F)F | fulfilled |

Hi team, for Cc1cccc(N(C)C(=S)Oc2ccc3ccccc3c2)c1 , is the recorded absolute recovery at or above 90%? not fulfilled

Hi team, for CC(=O)Nc1c(I)c(NC(C)=O)c(I)c(C(=O)[O-])c1I [Diatrizoate (=Amidotrizoic-acid)] , is the recorded absolute recovery at or above 90%? not fulfilled

Hi team, for CCOCCN(C(=O)CCl)C(=C(C)C)c1ccccc1 , is the recorded absolute recovery at or above 90%? fulfilled

Hi team, for C=CC(=O)OCCOC(=O)CCC(=O)[O-] [Mono(2-acryloyloxyethyl)-succinate] , is the recorded absolute recovery at or above 90%? not fulfilled

Hi team, for CC(C)[NH2+]CC(O)COc1ccc(COCCOC(C)C)cc1 (stereo not given) , is the recorded absolute recovery at or above 90%? fulfilled

Hi team, for CCCN(CCC)c1c([N+](=O)[O-])cc(S(N)(=O)=O)cc1[N+](=O)[O-] , is the recorded absolute recovery at or above 90%? fulfilled

Hi team, for COCC(=O)Nc1c(I)c(C(=O)NCC(O)CO)c(I)c(C(=O)N(C)CC(O)CO)c1I (stereo not given) , is the recorded absolute recovery at or above 90%? not fulfilled

* * *

# procedure details: absolute recovery over mixed-bed multilayer solid-phase extraction; higher = better recovery
# measurement context: nanopure water; enrichment method: SPE
Please go through the items and note down their absolute recovery.
One number for each entry, in %.

| molecule | absolute recovery (%) |
| --- | --- |
| CCS(=O)(=O)c1nc2ccccn2c1S(=O)(=O)[N-]C(=O)Nc1nc(OC)cc(OC)n1 | 101 |
| CON=C(C1=NOCCO1)c1ccccc1Oc1ncnc(Oc2ccccc2Cl)c1F | 97.5 |
| CC=CC(=O)N(CC)c1ccccc1C | 78.6 |
| CC(C)[NH2+]CC(O)c1ccc(NS(C)(=O)=O)cc1 (stereo not given) | 96.1 |
| O=C(C1CCCCC1)N1CC(=O)N2CCc3ccccc3C2C1 (stereo not given) | 98.3 |
| C[NH2+]CC(O)c1cccc(O)c1 (stereo not given) | 83.2 |

Give absolute recovery for each listed item.
1. Oc1ccc(C(F)(F)F)cc1
2. CC(Cn1cnc2c(N)ncnc21)OCP(=O)([O-])O (stereo not given)
3. CCC1(c2ccccc2)C(=O)NCNC1=O
4. COc1cc([N-]S(=O)(=O)c2ccc(N)cc2)nc(OC)n1

68.5
70
94.9
95.1

Give absolute recovery for each listed item.
1. COC(=O)[N-]S(=O)(=O)c1ccc(N)cc1
2. CCNc1nc(O)nc(NCC)n1 [Simazin-2-hydroxy]

[101, 84.5]

Give absolute recovery for each listed item.
1. Cc1nnc(-c2ccccc2)c(=O)[n-]1
2. CC(C)(Oc1ccc(Cl)cc1)C(=O)[O-]
3. CCCCc1[nH+]cc(C=C(Cc2cccs2)C(=O)[O-])n1Cc1ccc(C(=O)[O-])cc1
4. Cc1ccc(NS(=O)(=O)N(C)C)cc1 [N-N-dimethyl-N-(4-methylphenyl)-sulfamide]
5. Cc1cc(Cl)ccc1OC(C)C(=O)[O-] (stereo not given)
6. COc1cc(OC)n2nc(S(=O)(=O)Nc3c(Cl)ccc(C)c3Cl)nc2n1

[97.9, 96.4, 97.1, 94.7, 100, 98.1]

Give absolute recovery for each listed item.
1. CN(C)C(=O)Nc1ccc(Cl)c(Cl)c1
2. O=C([O-])Cc1ccccc1Nc1c(Cl)cc(O)cc1Cl [4-Hydroxydiclofenac A]

1. 97.7
2. 73.5

* * *

# procedure details: absolute recovery over mixed-bed multilayer solid-phase extraction; higher = better recovery
# measurement context: wastewater effluent; enrichment method: SPE
readout kind: absolute recovery
Kindly report the value followed by its unit.

Give absolute recovery for each listed item.
1. CC1CC2C(C(O)CC3(C)C2CCC3(O)C(=O)CO)C2(C)C=CC(=O)C=C12 (stereo not given)
2. CCC(C)OC(=O)N1CCCCC1CCO (stereo not given)
3. COc1cccc(C2(O)CCCCC2C[NH+](C)C)c1 (stereo not given)
4. [O-][n+]1nc(-n2ccnc2)nc2ccc(Cl)cc21 [Triazoxide]

1: 84.4%; 2: 93.9%; 3: 92%; 4: 87.4%

* * *

# procedure details: absolute recovery over vacuum-assisted evaporative concentration; higher = better recovery
# measurement context: wastewater effluent; enrichment method: VEC
Please go through the items and note down their absolute recovery.
One number for each entry, in %.

| compound | absolute recovery (%) |
| --- | --- |
| CCCCCC(C)OC(=O)COc1ccc(Cl)c2cccnc12 (stereo not given) | 111 |
| CC(=O)N(C)c1ccccc1 | 74.1 |
| Nc1ccn(C2OC(CO)C(O)C2O)c(=O)n1 (stereo not given) | 89.3 |
| CON=C(C(=O)OC)c1ccccc1CON=C(C)c1cccc(C(F)(F)F)c1 | 77.4 |
| COc1ccc(C2Sc3ccccc3N(CC[NH+](C)C)C(=O)C2OC(C)=O)cc1 (stereo not given) | 90.5 |
| CC(C)N(C(=O)COc1nnc(C(F)(F)F)s1)c1ccc(F)cc1 | 114 |
| O=C(NCC(O)CO)c1c(I)c(C(=O)NCC(O)CO)c(I)c(N(CCO)C(=O)CO)c1I (stereo not given) | 83.7 |
| c1cncc(C2CCC[NH2+]2)c1 (stereo not given) | 111 |

Give absolute recovery for each listed item.
1. CC(C)N(C(=O)C(=O)[O-])c1ccc(F)cc1
2. CCNc1nc(Cl)nc(NC(C)C)n1

1. 106
2. 99.3

* * *

# procedure details: absolute recovery over mixed-bed multilayer solid-phase extraction; higher = better recovery
# measurement context: nanopure water; enrichment method: SPE
readout kind: absolute recovery

Some entries whose results are on file:
| molecule | readout kind | assay result |
| --- | --- | --- |
| CCCCC(C#N)(Cn1cncn1)c1ccc(Cl)cc1 (centres undefined) | absolute recovery | 102% |
| N#CC1CCCN1C(=O)C[NH2+]C12CC3CC(CC(O)(C3)C1)C2 (centres undefined) | absolute recovery | 92.8% |

Give absolute recovery for each listed item.
1. CC(C)N(C(=O)CCl)c1ccccc1
2. Cc1cn(C2CC(N=[N+]=[N-])C(CO)O2)c(=O)[nH]c1=O (centres undefined)
3. NC(=O)N=C(N)N
4. CCCS(=O)(=O)[O-] [1-Propanesulfonate]
5. COc1cccc2c1C(=O)c1c(O)c3c(c(O)c1C2=O)CC(O)(C(=O)CO)CC3OC1CC([NH3+])C(O)C(C)O1 (centres undefined)
6. Clc1cccc(N2CC[NH2+]CC2)c1

1: 84.3%; 2: 98.2%; 3: 42.6%; 4: 4.8%; 5: 40.5%; 6: 70.3%

Respond only with absolute recovery recorded for CNC(=O)Nc1ccc(C(C)C)cc1 96.3%

* * *

# procedure details: LC retention time (Atlantis T3, 5-95% MeOH gradient, 0.1% formic acid); higher = more retained / less polar
Please go through the items and note down their LC retention time.
Answers are plain numbers, in min.

| compound | assay result |
| --- | --- |
| CCCCc1oc2ccc(NS(C)(=O)=O)cc2c1C(=O)c1ccc(OCCC[NH+](CCCC)CCCC)cc1 [Dronedaron] | 17.5 |
| N#Cc1cc(Br)c([O-])c(Br)c1 [Bromoxynil] | 18.6 |
| C[NH+](C)CCOC(C)(c1ccccc1)c1ccccn1 (stereo not drawn) [Doxylamine] | 10.8 |
| CC12CC3CC(C)(C1)CC([NH3+])(C3)C2 [Memantine] | 14.9 |
| CCC(=O)OC(OP(=O)(CCCCc1ccccc1)CC(=O)N1CC(C2CCCCC2)CC1C(=O)[O-])C(C)C (stereo not drawn) [Fosinopril] | 23.1 |
| C[NH+](C)CCCC1(c2ccc(F)cc2)OCc2cc(C#N)ccc21 (stereo not drawn) [Citalopram] | 14.5 |
| C[NH+](C)C(C)(C)CO [2-(Dimethylamino)-2-methyl-1-propanol] | 3.5 |
| N#Cc1nn(-c2c(Cl)cc(C(F)(F)F)cc2Cl)c(N)c1SC(F)(F)F [Fipronil-sulfid] | 20.5 |
| Cc1ccc(C(C)NC(=O)C(NC(=O)OC(C)C)C(C)C)cc1 (stereo not drawn) [Iprovalicarb] | 20.1 |
| CCCCCCCCCCCC[N+](C)(C)C [Dodecyltrimethylammonium] | 17.9 |

Give LC retention time for each listed item.
1. O=C(NCc1ncc(C(F)(F)F)cc1Cl)c1c(Cl)cccc1Cl [Fluopicolide]
2. CCNc1nc(Cl)nc(NC(C)(C)C)n1 [Terbutylazin]
3. O=C(c1ccccc1)c1ccc(Cl)cc1 [4-Chlorobenzophenone]
4. C#CCN1C(=O)COc2cc(F)c(N3C(=O)C4=C(CCCC4)C3=O)cc21 [Flumioxazin]
5. CN(C(=O)CO)c1c(I)c(C(=O)NCC(O)CO)c(I)c(C(=O)NCC(O)CO)c1I (stereo not drawn) [Iomeprol]
6. COCCOCCOCCOCCOC [Tetraglyme]

1: 19.6; 2: 19.7; 3: 20.9; 4: 18.8; 5: 8.92; 6: 13.2
